// provenance: patent US20230256092A1

testedOn: T1, human CCR8 (Homo sapiens, UniProt P51685)
T1 construct: expressed in transfected cells; host or cells: 293 cells
methodDescription: Neutralizing activity: inhibition of Ca2+ influx by 200 nM hCCL1 in human CCR8 expressing 293 cells (FLIPR), Test Example 6
Format: cell-based
measurementSetup: Table 9; WT IC50/mutant IC50; humanized 10A11 heavy chain CDR mutants, IGKV4-1/IGHV3-73
measurementName: IC50 ratio
Could you keep your reply to the number by itself?

Annotate the molecule h10A11 (IGKV4-1/IGHV3-73 Y100dF): humanized 10A11 heavy chain CDR point mutant (antibody, V domains shown) VL: DIVMTQSPDSLAVSLGERATINCRSSKSLLHSNGNTYLYWYQQKPGQPPKLLIYRMSNLASGVPDRFSGSGSGTDFTLTISSLQAEDVAVYYCMQHLEYPLTFGQGTKLEIKRT VH: EVQLVESGGGLVQPGGSLKLSCAASGFAFNTYALYWVRQASGKGLEWVGRIRSKSNNYATYYADSVKDRFTISRDDSKNTAYLQMNSLKTEDTAVYYCTRARFYYSDYGFAMDYWGQGTLVTVSS with its measured IC50 ratio.
0.55

Annotate the molecule h10A11 (IGKV4-1/IGHV3-73 R50K): humanized 10A11 heavy chain CDR point mutant (antibody, V domains shown) VL: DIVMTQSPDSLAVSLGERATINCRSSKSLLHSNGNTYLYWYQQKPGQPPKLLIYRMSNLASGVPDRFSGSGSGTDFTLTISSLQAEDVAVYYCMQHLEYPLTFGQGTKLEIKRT VH: EVQLVESGGGLVQPGGSLKLSCAASGFAFNTYALYWVRQASGKGLEWVGKIRSKSNNYATYYADSVKDRFTISRDDSKNTAYLQMNSLKTEDTAVYYCTRARFYYSDYGYAMDYWGQGTLVTVSS with its measured IC50 ratio.
0.12

Annotate the molecule h10A11 (IGKV4-1/IGHV3-73 K64R): humanized 10A11 heavy chain CDR point mutant (antibody, V domains shown) VL: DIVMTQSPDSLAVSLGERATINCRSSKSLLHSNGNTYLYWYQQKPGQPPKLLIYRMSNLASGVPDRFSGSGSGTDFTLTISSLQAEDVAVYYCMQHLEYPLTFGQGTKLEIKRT VH: EVQLVESGGGLVQPGGSLKLSCAASGFAFNTYALYWVRQASGKGLEWVGRIRSKSNNYATYYADSVRDRFTISRDDSKNTAYLQMNSLKTEDTAVYYCTRARFYYSDYGYAMDYWGQGTLVTVSS with its measured IC50 ratio.
0.54
